Cited source for all entries: patent US8609608B2

Property: MIC S. mutans; scope: individual substances
Test system: clinical isolates of S. mutans
Format: cell-based, Streptococcus mutans
test_context: clinical isolates of
Experimental: S. mutans clinical isolates UA140 (32), UA159 (1), T8 (33), ATCC 25175, GS5 (Kuramitsu and Ingersoll (1977) Infect Immun., 17: 330-337), and all gram-positive strains listed below (see Table 9) were grown under anaerobic conditions in brain heart infusion or Todd-Hewitt (TH) broth (Difco) overnight at 37° C. prior to use (Eckert et al. (2006) Antimicrob. Agents Chemother. 50: 3651-3657). […]
Where no end group is shown, it is not given here.
assay_readout: MIC S. mutans (µg/mL)

{"columns": ["substance", "reading_unit", "readout_qualifier", "obs_value"],
 "data": [
  ["VLIRILVRVIF [Peptide S3L8-33, VLIRILVRVIF]", "µg/mL", ">", 125],
  ["FLFKHLFLHRIFF [Peptide S3L8-16, FLFKHLFLHRIFF]", "µg/mL", ">", 125],
  ["KLVKLVFLY-NH2 [Peptide S6L1-6, KLVKLVFLY*]", "µg/mL", "=", 125],
  ["FLFRHRFRHRLVF [Peptide S3L8-28, FLFRHRFRHRLVF]", "µg/mL", "=", 60],
  ["FIRKFLFKHLF [Peptide S3L8-26, FIRKFLFKHLF]", "µg/mL", "=", 16],
  ["LRLRHRVLF [Peptide S3L8-37, LRLRHRVLF]", "µg/mL", ">", 125]
]}

---

System: L. casei ATCC 4646
Format: cell-based, Lactobacillus casei
Where no end group is shown, it is not given here.

{"columns": ["substance", "MIC L. casei ATCC 4646, µg/mL"],
 "data": [
  ["FKKFWKWFRRF-NH2 [Peptide B-33, FKKFWKWFRRF*]", 32],
  ["LKRFLKWFKRFGGGRWRWRWF-NH2 [FBRW-16, LKRFLKWFKRF-GGG-RWRWRWF*]", 16],
  ["LKRFLKWFKRF-NH2 [Peptide B-34, LKRFLKWFKRF*]", 16]
]}

---

System: P. aeruginosa
test_name: MIC against P. aeruginosa
Format: cell-based, Pseudomonas aeruginosa
Where no end group is shown, it is not given here.

{"columns": ["substance", "MIC P. aeruginosa"],
 "data": [
  ["VGKCVKLLY-NH2 [Peptide S6L1-4, VGKCVKLLY*]", "250 µg/mL"],
  ["VFRHRFIHRHVF [Peptide S3L8-19, VFRHRFIHRHVF]", ">125 µg/mL"],
  ["LRLFLRHRF [Peptide S3L8-41, LRLFLRHRF]", ">125 µg/mL"],
  ["LKHKLKHKF [Peptide S3L8-35, LKHKLKHKF]", ">125 µg/mL"],
  ["IKVFAKQKY-NH2 [Peptide S6L1-7, IKVFAKQKY*]", ">500 µg/mL"]
]}

---

Test system: clinical isolates of S. mutans
Type: cell-based, Streptococcus mutans
test_context: clinical isolates of
Where no end group is shown, it is not given here.
# MIC S. mutans values compiled below

{"columns": ["substance", "MIC S. mutans"],
 "data": [
  ["FKFLFKF [Peptide S3L8-42, FKFLFKF]", ">125 µg/mL"],
  ["FKHKFKHKFIF [Peptide S3L8-30, FKHKFKHKFIF]", ">125 µg/mL"],
  ["LVHKLILRHLLF [Peptide S3L8-22, LVHKLILRHLLF]", ">125 µg/mL"],
  ["LKQLKAGIY-NH2 [Peptide S6L1-3, LKQLKAGIY*]", ">500 µg/mL"],
  ["IKVFAKQKY-NH2 [Peptide S6L1-7, IKVFAKQKY*]", ">500 µg/mL"],
  ["LRIHARFKVHIRLKF [Peptide S3L8-5, LRIHARFKVHIRLKF]", "60 µg/mL"],
  ["FKFLFKFLF [Peptide S3L8-38, FKFLFKFLF]", ">125 µg/mL"],
  ["FLHKHLFKHKLF [Peptide S3L8-18, FLHKHLFKHKLF]", ">125 µg/mL"],
  ["VIRHVWVRKLF [Peptide S3L8-27, VIRHVWVRKLF]", "60 µg/mL"],
  ["VFRHRFIHRHVF [Peptide S3L8-19, VFRHRFIHRHVF]", ">125 µg/mL"],
  ["LRLFLRHRF [Peptide S3L8-41, LRLFLRHRF]", "16 µg/mL"]
]}
